These measurements were taken from ChEMBL document CHEMBL5576142.

Target or test system: Tyrosine-protein kinase BTK (Homo sapiens)
Experimental details: Inhibition of NanoLuc fused BTK (unknown origin) transiently transfected in HEK293 cells incubated for 1 hr by NanoBRET assay
Type: cell-based
Quantity: IC50 (pM)

                                item_smiles  quantity  uom  quantitative_result
0  CNC(=O)c1cnc(S(C)(=O)=O)nc1N1CCC[C@H](n2nc(-c3ccc(Oc4ccccc4)cc3)c3c(N)ncnc32)C1      IC50   pM                  600

* * *

Target or test system: Tyrosine-protein kinase BTK (Homo sapiens, UniProt Q06187)
Sequence (Q06187 whole entry, the tested form may be a part): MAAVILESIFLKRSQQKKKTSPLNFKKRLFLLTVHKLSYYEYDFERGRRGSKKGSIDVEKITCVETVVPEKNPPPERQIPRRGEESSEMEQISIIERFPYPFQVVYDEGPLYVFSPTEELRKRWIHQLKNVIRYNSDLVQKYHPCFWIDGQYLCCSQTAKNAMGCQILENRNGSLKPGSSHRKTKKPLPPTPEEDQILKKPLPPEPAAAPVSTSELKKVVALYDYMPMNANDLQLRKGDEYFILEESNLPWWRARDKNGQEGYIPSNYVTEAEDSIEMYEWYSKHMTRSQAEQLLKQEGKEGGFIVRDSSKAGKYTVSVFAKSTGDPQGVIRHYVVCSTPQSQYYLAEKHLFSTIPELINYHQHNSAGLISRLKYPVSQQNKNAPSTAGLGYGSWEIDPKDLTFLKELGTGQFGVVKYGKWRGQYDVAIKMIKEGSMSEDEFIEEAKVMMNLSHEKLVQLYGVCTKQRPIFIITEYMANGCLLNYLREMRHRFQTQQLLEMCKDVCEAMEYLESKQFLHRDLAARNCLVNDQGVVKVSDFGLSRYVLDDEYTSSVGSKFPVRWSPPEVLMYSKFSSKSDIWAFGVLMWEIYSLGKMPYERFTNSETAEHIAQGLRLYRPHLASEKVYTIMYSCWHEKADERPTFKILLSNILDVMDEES
Experimental details: Covalent inhibition of full-length BTK (unknown origin) expressed in Escherichia coli BL21 (DE3) at 100 nM incubated for 1 hr in presence of ATP by ADP-Glo kinase assay relative to control
Listing of entries alongside the reported inhibition.
Quantity: inhibition (%)

>>> print(df.to_string())
                                item_smiles  comparative_sign  quantitative_result
0  CS(=O)(=O)c1ncc(Cl)c(C(=O)N2CCC[C@H](n3nc(-c4ccc(Oc5ccccc5)cc4)c4c(N)ncnc43)C2)n1                 =                   80
1  CCCCS(=O)(=O)c1nccc(C(=O)N2CCC[C@H](n3nc(-c4ccc(Oc5ccccc5)cc4)c4c(N)ncnc43)C2)n1                 =                   40
2  CCCCS(=O)(=O)c1ncc(C(=O)N2CCC[C@H](n3nc(-c4ccc(Oc5ccccc5)cc4)c4c(N)ncnc43)C2)cn1                 =                   40
3  CCOC(=O)c1cnc(S(C)(=O)=O)nc1N1CCC[C@H](n2nc(-c3ccc(Oc4ccccc4)cc3)c3c(N)ncnc32)C1                 >                   95
4  CS(=O)(=O)c1ncc(C(=O)N2CCC[C@H](n3nc(-c4ccc(Oc5ccccc5)cc4)c4c(N)ncnc43)C2)cn1                 =                   80
5  Nc1ncnc2c1c(-c1ccc(Oc3ccccc3)cc1)nn2[C@H]1CCCN(C(=O)c2cnc(S(=O)(=O)c3ccccc3)nc2)C1                 =                   40
6  CS(=O)(=O)c1nccc(C(=O)N2CCC[C@H](n3nc(-c4ccc(Oc5ccccc5)cc4)c4c(N)ncnc43)C2)n1                 =                   80
